Ref: patent US20230078764A1

Each entry below carries its reported log10 IC50.
- ASSAY TARGET: human SCD5 (Homo sapiens, UniProt Q86SK9)
- Construct: expressed in transfected cells; host or cells: yeast strain with OLE1 deleted, plasmid-borne human SCD5 (selected in SD-Ura)
- Sequence (Q86SK9 whole entry): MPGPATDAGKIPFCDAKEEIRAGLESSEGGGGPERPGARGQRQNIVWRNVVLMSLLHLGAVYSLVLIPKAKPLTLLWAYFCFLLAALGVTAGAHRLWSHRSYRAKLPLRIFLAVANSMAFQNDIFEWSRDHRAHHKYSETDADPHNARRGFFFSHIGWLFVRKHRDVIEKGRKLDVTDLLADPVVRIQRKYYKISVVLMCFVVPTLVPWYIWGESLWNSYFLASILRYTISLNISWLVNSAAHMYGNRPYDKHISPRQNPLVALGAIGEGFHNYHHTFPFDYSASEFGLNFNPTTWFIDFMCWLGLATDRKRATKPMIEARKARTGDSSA
- TEST PROTOCOL: Growth inhibition of yeast strain expressing human SCD5 as sole desaturase (OLE1 deleted), OD600 readout
- Type: cell-based
- TEST PARAMETERS: yeast strain expressing human SCD5 as sole desaturase; growth (OD600) after 40 h at 30° C.; read-out: SCD5 IC50
Short version: log10 scale, IC50, nM.

// known answers, use as guide
CCn1cc(C(=O)Nc2ccc(Cc3cccc(Cl)c3)cn2)cn1 ... 1.48
CCn1cc(NC(=O)c2ccc(Cc3cc(F)cc(Cl)c3)cn2)ccc1=O ... 1.00
Cn1nc(C(=O)Nc2ccc(CC3CCCCC3)cn2)cc1O ... 3.88
CN1N=C(C(=O)Nc2ccc(OCc3cccc(Cl)c3)cn2)CCC1=O ... 3.03
O=C(Nc1ccc(Cc2ccc(F)c(F)c2)cn1)c1cnc(Cl)cn1 ... 1.82
Cn1cc(C(=O)Nc2ccc(COc3cccc(Cl)c3)nn2)ccc1=O ... 2.76

Input COc1cc(Cc2ccc(NC(=O)c3cnc(C#N)cn3)nc2)ccc1F . Output log10 IC50: 1.99

get_value(item= Cn1nc(C(=O)Nc2ccc(OCc3cccc(Cl)c3)cn2)ccc1=O , readout=log10 IC50) returns 2.93

The reported value for Cn1nc(NC(=O)N[C@H]2CC[C@@H](Cc3cccc(Cl)c3)CC2)ccc1=O in terms of log10 IC50 is 3.78

###

- ASSAY TARGET: human SCD1 (Homo sapiens, UniProt O00767)
- Construct: expressed in transfected cells; host or cells: yeast strain with OLE1 deleted, plasmid-borne human SCD1 (selected in SD-Ura)
- Sequence (O00767 whole entry): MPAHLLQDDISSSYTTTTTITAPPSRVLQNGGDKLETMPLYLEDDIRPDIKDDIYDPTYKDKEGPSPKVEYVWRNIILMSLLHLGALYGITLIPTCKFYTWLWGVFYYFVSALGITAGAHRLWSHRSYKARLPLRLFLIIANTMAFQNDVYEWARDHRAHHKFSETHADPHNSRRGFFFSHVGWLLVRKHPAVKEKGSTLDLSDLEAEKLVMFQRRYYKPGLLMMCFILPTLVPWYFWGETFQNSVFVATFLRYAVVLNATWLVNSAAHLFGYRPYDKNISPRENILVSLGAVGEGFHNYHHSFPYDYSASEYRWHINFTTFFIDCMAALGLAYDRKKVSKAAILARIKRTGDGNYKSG
- TEST PROTOCOL: Growth inhibition of yeast strain expressing human SCD1 as sole desaturase (OLE1 deleted), OD600 readout
- Format: cell-based
- TEST PARAMETERS: yeast strain expressing human SCD1 as sole desaturase; growth (OD600) after 40 h at 30° C.; read-out: SCD1 IC50
ENDPOINT NAME: IC50 (µM)
Dear colleague, please return just the value in µM, with no unit written.

The molecule CCn1cc(C(=O)Nc2ccc(Cc3cc(F)cc(C#N)c3)cn2)cn1 showed IC50 equal to 3.1

Measured IC50, Cn1ccc(C(=O)Nc2ccc(Cc3ccc(F)c(F)c3)cn2)cc1=O : 5.9

###

The entries below come with measured IC50 values attached.
- ASSAY TARGET: human SCD1 (Homo sapiens, UniProt O00767)
- Construct: expressed in transfected cells; host or cells: yeast strain with OLE1 deleted, plasmid-borne human SCD1 (selected in SD-Ura)
- TEST PROTOCOL: Growth inhibition of yeast strain expressing human SCD1 as sole desaturase (OLE1 deleted), OD600 readout
- Type: cell-based
- TEST PARAMETERS: yeast strain expressing human SCD1 as sole desaturase; growth (OD600) after 40 h at 30° C.; read-out: SCD1 IC50
Give your result in µM as a bare value.

Cn1cc(NC(=O)c2ccc(COc3ccc(F)c(Cl)c3)cn2)ccc1=O ... 5.8
Cn1nc(C(=O)Nc2ccc(Cc3ccc(F)c(F)c3Cl)cn2)ccc1=O ... 0.52
Cn1cc(C(=O)Nc2ccc(Cc3ccc(F)c(F)c3)cn2)cn1 ... 0.1
COc1cc(C(=O)Nc2ccc(Cc3cc(F)cc(F)c3)cn2)nn(C)c1=O ... 1.08
CN1N=C(C(=O)Nc2ccc(Cc3ccc(Cl)c(Cl)c3)cn2)CCC1=O ... 0.22

For Cn1nc(C(=O)Nc2ccc(Cc3cc(F)cc(F)c3)cn2)cc1O the molecule record lists IC50 as 16.4

get_value(item= Cn1nccc(C(=O)Nc2ccc(Cc3cc(F)cc(F)c3)cn2)c1=O , readout=IC50) returns 0.01

Short answer for O=C(Nc1ccc(C=C2CCOCC2)cn1)c1ccc(CO)nc1 : IC50 was 12

// CCn1ccc(C(=O)Nc2ccc(Cc3ccc(F)cc3)cn2)n1 : IC50 value = 10.3

Reported IC50 ( C=Cc1ncc(C(=O)Nc2ccc(Cc3cccc(Cl)c3)cn2)cc1F ) = 0.11

IC50 in this record for Cc1nccc(C(=O)Nc2ccc(Cc3ccc(F)c(Cl)c3)cn2)n1 : 0.01
